The reported measurements were obtained from patent US10858368B2.

target: 5HT7 receptors (Homo sapiens (Human)); experiment: Radiolabel Binding Studies for Serotonin 5-HT7 Receptors, Method 2 ([3H]-5HT competition; Ki, and percent inhibition at 10 μM); details: single concentration 10 uM; inhibition of radioligand binding to 5HT7 receptors; read-out: 5-HT7 % inhib @ 10 uM
Sequence (P34969 whole entry): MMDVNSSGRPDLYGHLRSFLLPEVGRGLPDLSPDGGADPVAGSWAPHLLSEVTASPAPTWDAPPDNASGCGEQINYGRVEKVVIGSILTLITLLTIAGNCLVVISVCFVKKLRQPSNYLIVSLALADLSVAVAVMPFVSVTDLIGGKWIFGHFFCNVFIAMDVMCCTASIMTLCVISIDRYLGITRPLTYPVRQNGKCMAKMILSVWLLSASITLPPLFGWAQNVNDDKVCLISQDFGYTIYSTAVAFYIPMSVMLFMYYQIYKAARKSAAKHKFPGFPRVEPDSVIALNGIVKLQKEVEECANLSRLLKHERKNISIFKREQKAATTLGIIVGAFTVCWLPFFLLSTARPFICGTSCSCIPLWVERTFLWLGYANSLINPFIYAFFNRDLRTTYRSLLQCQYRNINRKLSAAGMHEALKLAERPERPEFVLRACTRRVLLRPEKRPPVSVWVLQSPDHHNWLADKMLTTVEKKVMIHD
reported.endpoint: inhibition at 10 µM
Remember to quote the unit after the number.

Before answering, review these 6 worked examples.
CNC(=O)N1CCC2(CC1)CC(CCN1CCN(c3ccc(C)cc3)CC1)OC2=O (stereo not shown) : 91.6%
COC(=O)N1CCC2(CC1)CC(CCN1CCN(c3ccc(C)cc3)CC1)OC2=O (stereo not shown) : 90%
Cc1nc2cccc(N3CCN(CCC4CC5(CCN(S(C)(=O)=O)CC5)C(=O)O4)CC3)c2[nH]1 (stereo not shown) : 100%
Cc1ccc(N2CCN(CCC3CC4(CCN(Cc5ccccc5)CC4)C(=O)O3)CC2)cc1 (stereo not shown) : 96.5%
Cc1ccc(N2CCN(CCC3CC4(CCN(S(C)(=O)=O)CC4)C(=O)O3)CC2)cc1 (stereo not shown) : 90.5%
Cc1ccc(N2CCN(CCC3CC4(CCNCC4)C(=O)O3)CC2)cc1 (stereo not shown) : 88.8%

q: Entry CC(=O)N1CCC2(CC1)CC(CCN1CCN(c3ccc(C)cc3)CC1)OC2=O (stereo not shown) needs its inhibition at 10 µM filled in; supply it.
a: 88.5%
